B1: Membrane-associated guanylate kinase, WW and PDZ domain-containing protein 1, residues 352 to 401; numbered along this chain, Q96QZ7 (parent)
chain: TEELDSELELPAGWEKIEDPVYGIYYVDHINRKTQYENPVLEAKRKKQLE

Variants of: B1
method description: abundance fitness (aPCA) (normalised: wild type 0, dead -1); higher = more abundant; growth selection in yeast, the domain comes from the species named
condition notes: Homo sapiens
We use -0.2 as the dividing line for abundance fitness: on or above the line is 1 (yes), below is 0 (no).

| residue change | label |
| --- | --- |
| A12I | 1 (yes) |
| E7N | 0 (no) |
| W14T | 0 (no) |
| I24Q | 0 (no) |
| Y22H | 1 (yes) |
| L10F | 0 (no) |
| Q48S | 1 (yes) |
| E42G | 1 (yes) |
| D5C | 1 (yes) |
| Y25F | 1 (yes) |
| T34N | 0 (no) |
| A43H | 1 (yes) |
| R32V | 0 (no) |
| L41F | 1 (yes) |
| A43M | 1 (yes) |
| E9D | 1 (yes) |
| V21N | 1 (yes) |
| I24A | 0 (no) |
| E18K | 0 (no) |
| W14F | 0 (no) |
| V27E | 0 (no) |
| L4W | 0 (no) |
| L8S | 0 (no) |
| L8N | 0 (no) |
| G13W | 0 (no) |
| I24S | 1 (yes) |
| Y25V | 1 (yes) |
| G13K | 0 (no) |
| D28F | 0 (no) |
| G23P | 0 (no) |
| P11G | 0 (no) |
| L4N | 0 (no) |
| E37W | 0 (no) |
| E2G | 1 (yes) |
| E9S | 1 (yes) |
| I30E | 1 (yes) |
| E42H | 0 (no) |
| R45M | 1 (yes) |
| D28Y | 0 (no) |
| Y25L | 0 (no) |
| K33M | 0 (no) |
| W14V | 0 (no) |
| D5W | 0 (no) |
| Y36L | 1 (yes) |
| E2A | 1 (yes) |
| G13Q | 0 (no) |
